test system: Trypanosoma brucei brucei; test: WHO-TDR: Human African Trypanosomiasis (HAT); assay type: functional, organism-based; details: Squib-427
Measure Name: IC50

See these solved cases before continuing.
COc1ccccc1N1CCN(C(CNS(=O)(=O)c2cccs2)c2cccnc2)CC1 (stereo not given) : > 13.8 µg/mL
O=C(Nc1nc(CSCc2ccc(F)cc2)cs1)c1ccco1 : > 10.5 µg/mL

Enquiry: Form field: IC50 recorded for `CCS(=O)(=O)c1ccc(-c2cccc(NC(=O)c3cc(Cl)ccc3Cl)c2)nn1` with Trypanosoma brucei brucei (enter value)
Return: > 13.1 µg/mL

Enquiry: Form field: IC50 recorded for `O=C(CCS(=O)(=O)c1ccc(Cl)cc1)Nc1cccc(-c2nc3ccccc3o2)c1` with Trypanosoma brucei brucei (enter value)
Return: > 13.2 µg/mL

Enquiry: Form field: IC50 recorded for CCOC(=O)CCNC(=O)NCC1CC(=O)N(c2ccc(Cl)cc2)C1 (stereo not given) with Trypanosoma brucei brucei (enter value)
Return: > 11 µg/mL

* * *

experiment: WHO-TDR: Cytotoxicity; type: toxicity, cell-based; details: human, MRC5 cells
Measure Name: IC50

See these solved cases before continuing.
O=c1ccc(-c2ccc(F)cc2)nn1CCCNS(=O)(=O)c1cc(F)ccc1F : 3.28 µg/mL
COc1cccc(NC(=O)CSc2nc(-c3ccccc3Cl)ns2)c1 : > 11.8 µg/mL

Enquiry: May I ask what IC50 has been recorded for CC1CCc2[nH]nc(-c3nc(-c4ccc(Cl)cc4)no3)c2C1 (configuration not stated) ?
Return: > 9.44 µg/mL

Enquiry: May I ask what IC50 has been recorded for Cc1ccc(S(=O)(=O)N(C)CC(O)COc2c(C)cc(C)cc2C)cc1 (configuration not stated) ?
Return: > 11.3 µg/mL

Enquiry: May I ask what IC50 has been recorded for `CCOC(=O)Cn1/c(=N\C(=O)CCCS(=O)(=O)Cc2ccccc2)sc2cc(F)ccc21` ?
Return: > 14.4 µg/mL

Enquiry: May I ask what IC50 has been recorded for `CCOC(=O)Cn1/c(=N/C(=O)c2ccccc2Br)sc2cc(S(C)(=O)=O)ccc21` ?
Return: > 14.9 µg/mL

Enquiry: May I ask what IC50 has been recorded for `O=C(COc1ccccc1)Oc1ccc2nc(N3CCN(c4ccccc4)CC3)sc2c1` ?
Return: > 13.4 µg/mL

Enquiry: May I ask what IC50 has been recorded for `COc1ccc2nc(Nc3nc(-c4ccccn4)cs3)sc2c1` ?
Return: 0.129 µg/mL

Enquiry: May I ask what IC50 has been recorded for COc1ccc(CCC(=O)NCC(c2ccsc2)N2CCc3ccccc3C2)cc1 (configuration not stated) ?
Return: > 12.6 µg/mL

Enquiry: May I ask what IC50 has been recorded for `CCS(=O)(=O)c1ccc(-c2cccc(NC(=O)c3cc(Cl)ccc3Cl)c2)nn1` ?
Return: > 13.1 µg/mL

Enquiry: May I ask what IC50 has been recorded for `O=c1c2nccnc2n(Cc2cccc(C(F)(F)F)c2)c(=O)n1Cc1ccc(F)cc1` ?
Return: 10 µg/mL

Enquiry: May I ask what IC50 has been recorded for CC1CCc2c(sc(Nc3nc4c(F)cccc4s3)c2C(N)=O)C1 (configuration not stated) ?
Return: > 10.8 µg/mL

Enquiry: May I ask what IC50 has been recorded for `CCOc1ccccc1C(=O)NCc1ccc2c(c1)cc(C)n2C` ?
Return: 4.26 µg/mL

Enquiry: May I ask what IC50 has been recorded for `Cc1cc(=O)[nH]c(-n2nc(C)cc2NC(=O)c2c(F)cccc2Cl)n1` ?
Return: 0.39 µg/mL

* * *

Below, each of the molecules is paired with its reported log10 of IC50 value.
test system: Leishmania infantum; test: WHO-TDR: Leishmaniasis; assay type: functional, organism-based, Mus musculus; conditions: Macrophage
Heads up: the numbers are on a log10 scale; they represent IC50 in µg/mL.

See these solved cases before continuing.
CCOc1ccc2ccccc2c1C(=O)Nc1cc(C)nn1-c1nc(C)cc(=O)[nH]1 : -0.20
CN(CC1CCCO1)S(=O)(=O)c1ccc(C(=O)Nc2nc3c(s2)CSc2ccccc2-3)cc1 (configuration not stated) : 0.69
O=C(CSc1nc2ccccc2nc1O)Nc1ccccc1C(=O)c1ccccc1 : 0.29

Enquiry: May I ask what log10 of IC50 has been recorded for `CC(C)N1CCc2c(sc(NC(=O)c3sc4ccccc4c3Cl)c2C(N)=O)C1` ?
Return: -0.34

Enquiry: May I ask what log10 of IC50 has been recorded for `CCc1ccc(S(=O)(=O)Nc2ccc3c(c2)NC(=O)C(C)(C)CO3)s1` ?
Return: 0.57

Enquiry: May I ask what log10 of IC50 has been recorded for O=C(Nc1nc2c(s1)CSc1ccccc1-2)C1CCCN1S(=O)(=O)c1cccs1 (configuration not stated) ?
Return: 0.65

Enquiry: May I ask what log10 of IC50 has been recorded for `Cc1cccc(-n2nc3c(c2NC(=O)Nc2cccc(Cl)c2)CSC3)c1` ?
Return: 0.57

* * *

assay: WHO-TDR: Cytotoxicity; assay type: toxicity, cell-based; settings: human, MRC5 cells
Below, each of the compounds is paired with its reported IC50 value.

Cc1nn2c(=O)[nH]c(SCc3ccccn3)nc2c1-c1ccccc1 : > 10.5 µg/mL
CC(Sc1ccc2nnc(CCNC(=O)c3ccccc3)n2n1)c1ccccc1 (stereo not drawn) : > 12.1 µg/mL

Now for the compound whose IC50 we want.
Enquiry: May I ask what IC50 has been recorded for `Cc1cc(=O)[nH]c(-n2nc(C)c(CCC(=O)Nc3ccc(F)c(C(F)(F)F)c3)c2C)n1` ?
Return: > 13.1 µg/mL

* * *

tested on: Plasmodium falciparum K1; test: WHO-TDR: Malaria; assay type: functional, organism-based, Homo sapiens; conditions: Erythrocyte
Measure Name: IC50

Cc1cccc2sc(N(CCCN(C)C)C(=O)c3ccccc3Br)nc12 : 0.653 µg/mL

Enquiry: May I ask what IC50 has been recorded for CN1CCCc2cc(C(CNC(=O)c3ccc4c(c3)OCO4)N3CCOCC3)ccc21 (centres undefined) ?
Return: > 12.7 µg/mL

Enquiry: May I ask what IC50 has been recorded for `CCn1ccc(C(=O)Nc2ccc(C)cc2C(=O)c2ccccc2)n1` ?
Return: > 10 µg/mL

Enquiry: May I ask what IC50 has been recorded for `NC(=O)c1csc(NC(=O)C2(c3ccc(Cl)cc3)CCCC2)n1` ?
Return: > 10.5 µg/mL

* * *

experiment: WHO-TDR: Cytotoxicity; format: toxicity, cell-based; details: human, MRC5 cells
Below, each of the molecules is paired with its reported IC50 value.

See these solved cases before continuing.
CS(=O)(=O)c1ccc2nc(Nc3nc4c(F)cccc4s3)sc2c1 : > 11.4 µg/mL
CC(C)CC(=O)N1CCN(c2ccc(-c3ccccn3)nn2)CC1 : 3.86 µg/mL
O=C(CCc1csc(NC(=O)c2ccco2)n1)NCc1c(F)cccc1F : > 11.7 µg/mL
CCc1ccc(S(=O)(=O)N2CCN(c3ccc(Nc4ccccn4)nn3)CC2)cc1 : > 12.7 µg/mL
CC(=O)Nc1ccc2nc(Nc3nc4ccc(C(C)C)cc4s3)sc2c1 : > 11.5 µg/mL

Enquiry: May I ask what IC50 has been recorded for `O=C(c1cccs1)N(CCCn1ccnc1)c1nc2c(F)cc(F)cc2s1` ?
Return: 8.75 µg/mL

Enquiry: May I ask what IC50 has been recorded for O=C(CC1CCCCN1S(=O)(=O)c1ccc(Cl)cc1)NCCC1=CCCCC1 (configuration not stated) ?
Return: 12.7 µg/mL

Enquiry: May I ask what IC50 has been recorded for `COc1ccc(Cl)cc1C(=O)Nc1cc(C)nn1-c1nc2c(c(=O)[nH]1)CCC2` ?
Return: 0.685 µg/mL

Enquiry: May I ask what IC50 has been recorded for CC(CNC(=O)Nc1ccc(Oc2ccccc2)cc1)N1CCCCC1 (configuration not stated) ?
Return: > 10.6 µg/mL

Enquiry: May I ask what IC50 has been recorded for `COc1cccc(C(=O)N(CCCn2ccnc2)c2nc3c(C)c(C)ccc3s2)c1OC` ?
Return: 3.15 µg/mL

Enquiry: May I ask what IC50 has been recorded for `COc1ccc(Cl)cc1NC(=O)CSc1nccn1-c1cccc(C)c1C` ?
Return: > 12.1 µg/mL

Enquiry: May I ask what IC50 has been recorded for `Cc1c(Cl)cccc1-n1c(-c2ccc(F)cc2)cn2c3c(=O)n(C)c(=O)n(C)c3nc12` ?
Return: 6.43 µg/mL

Enquiry: May I ask what IC50 has been recorded for `COc1ccc(CCNC(=O)CSc2nnc(NC(=O)c3cc(Cl)ccc3Cl)s2)cc1OC` ?
Return: 0.526 µg/mL

Enquiry: May I ask what IC50 has been recorded for `Cc1cc(NC(=O)C2(c3ccc(Cl)cc3)CCCC2)n(-c2nc3c(c(=O)[nH]2)CCC3)n1` ?
Return: 0.338 µg/mL

Enquiry: May I ask what IC50 has been recorded for `Cn1ccnc1N1CCN(CC(=O)Nc2ccc(OC(F)(F)F)cc2)CC1` ?
Return: > 11.5 µg/mL

Enquiry: May I ask what IC50 has been recorded for `O=S(=O)(c1cccc(F)c1)N1CCN(c2ccc(-c3ccncc3)nn2)CC1` ?
Return: > 12 µg/mL

Enquiry: May I ask what IC50 has been recorded for `O=C(CCS(=O)(=O)c1ccc(Cl)cc1)Nc1cccc(-c2nc3ccccc3o2)c1` ?
Return: > 13.2 µg/mL

Enquiry: May I ask what IC50 has been recorded for CC1CCN(C(C)CNC(=O)Nc2ccc(F)cc2)CC1 (configuration not stated) ?
Return: > 8.8 µg/mL

Enquiry: May I ask what IC50 has been recorded for `C=CCn1c(Sc2nc3ccccc3o2)nc2c1c(=O)[nH]c(=O)n2C` ?
Return: > 10.7 µg/mL

Enquiry: May I ask what IC50 has been recorded for CCc1nnc(NS(=O)(=O)c2ccc(NC(=O)c3ccc(S(=O)(=O)N4CCCCC4C)cc3)cc2)s1 (configuration not stated) ?
Return: > 16.5 µg/mL
